target: human TRPV3 (Homo sapiens, UniProt Q8NET8); assay: Calcium flux assay (FLIPR TETRA), recombinant HEK293 cells expressing TRPV3, 2-APB response; settings: 2-APB at its EC80
Sequence (Q8NET8 whole entry): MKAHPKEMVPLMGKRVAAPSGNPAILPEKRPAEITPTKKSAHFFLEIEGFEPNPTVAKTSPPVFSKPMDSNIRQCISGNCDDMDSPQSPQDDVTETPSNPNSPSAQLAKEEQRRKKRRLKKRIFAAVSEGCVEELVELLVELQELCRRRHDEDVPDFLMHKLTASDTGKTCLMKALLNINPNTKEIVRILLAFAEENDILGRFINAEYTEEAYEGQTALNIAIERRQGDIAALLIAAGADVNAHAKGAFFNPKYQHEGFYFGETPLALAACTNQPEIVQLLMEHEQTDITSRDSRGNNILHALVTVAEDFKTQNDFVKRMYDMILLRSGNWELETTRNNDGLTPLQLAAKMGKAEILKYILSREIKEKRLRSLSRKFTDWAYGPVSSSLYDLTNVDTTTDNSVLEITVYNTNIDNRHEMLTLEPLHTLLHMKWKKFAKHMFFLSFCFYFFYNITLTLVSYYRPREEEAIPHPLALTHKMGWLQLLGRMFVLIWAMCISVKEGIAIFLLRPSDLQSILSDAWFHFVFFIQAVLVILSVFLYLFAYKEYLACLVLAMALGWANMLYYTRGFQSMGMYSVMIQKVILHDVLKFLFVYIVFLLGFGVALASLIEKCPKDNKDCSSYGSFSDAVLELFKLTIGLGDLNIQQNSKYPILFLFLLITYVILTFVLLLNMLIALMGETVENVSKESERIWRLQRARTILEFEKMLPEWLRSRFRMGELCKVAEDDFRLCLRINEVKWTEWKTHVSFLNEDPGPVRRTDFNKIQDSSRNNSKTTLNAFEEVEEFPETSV
Reported IC50 values follow for various molecules

Molecule	Target Of Assay	IC50
COc1ncnc(OC)c1C(=O)Nc1nc(C(F)(F)F)c(-c2ccc(Cl)cn2)s1 [Example 46]	human TRPV3 (Homo sapiens, UniProt Q8NET8)	< 50 nM
COc1ncnc(OC)c1C(=O)Nc1nc(-c2ccc(C(F)F)cn2)cs1 [Example 94]	human TRPV3 (Homo sapiens, UniProt Q8NET8)	100 to 500 nM

Moving on to another molecule below.
Lookup result for COc1cc(C#N)ccc1-c1sc(NC(=O)c2c(OC)ncnc2OC)nc1C(F)(F)F [Example 43] ; measured IC50: < 50 nM

---

molecular target: human TRPV3 (Homo sapiens, UniProt Q8NET8); assay: Calcium flux assay (FLIPR TETRA), recombinant HEK293 cells expressing TRPV3, 2-APB response; details: 2-APB at its EC80
Assay Metric: IC50

Compound	IC50
COCCCc1sc(NC(=O)c2c(OC)ncnc2OC)nc1C(F)(F)F	< 50 nM
COc1ncnc(OC)c1C(=O)Nc1nc(C(F)(F)F)c(C2OCCCO2)s1	100 to 500 nM
COc1ncnc(OC)c1C(=O)Nc1nc(C2CCC2)c(C#N)s1	100 to 500 nM
COc1ncnc(OC)c1C(=O)Nc1nc(-c2ccc(C(F)(F)F)cn2)c(C#N)s1	50 to 100 nM
COc1ncnc(OC)c1C(=O)Nc1nc(C(F)(F)F)c(-c2cc(C(C)C)no2)s1	50 to 100 nM
COc1ncnc(OC)c1C(=O)Nc1nc(C(F)(F)F)c(C2CCCOC2)s1 (single isomer, unassigned) [Example 149]	> 1000 nM

Lab note: COc1ncnc(OC)c1C(=O)Nc1nc(C(F)(F)F)c(-c2cc(C(F)(F)F)nn2C)s1 gave IC50 of < 50 nM

Measured IC50, COc1ncnc(OC)c1C(=O)Nc1nc(C(F)(F)F)c(C2COC(C)(C)O2)s1 (stereo not drawn) : 100 to 500 nM

IC50 measured on COc1ncnc(OC)c1C(=O)Nc1nc(C(F)(F)F)c(C(C)(O)c2ccccn2)s1 (stereo not drawn) = > 1000 nM

Per the records, this compound ( COc1ncc(-c2sc(NC(=O)c3c(OC)ncnc3OC)nc2C(F)(F)F)cc1C#N ) has IC50 equal to < 50 nM

Reported IC50 for COc1ncnc(OC)c1C(=O)Nc1nc(-c2ccc(C(F)(F)F)cn2)c(C(C)O)s1 (single isomer, unassigned) [Example 84] was 100 to 500 nM

get_value(item= COc1ncnc(OC)c1C(=O)Nc1nc(C(F)(F)F)c(CN2CCCC3(COC3)C2)s1 , readout=IC50) returns 50 to 100 nM

Entry COc1ncnc(OC)c1C(=O)Nc1nc(C(C)(C)C)c(C#N)s1 — recorded IC50 = < 50 nM

Recorded IC50 (compound COc1ncnc(OC)c1C(=O)Nc1nc(C(F)(F)F)c(CN2CCC3(CC2)COC3)s1 ): 100 to 500 nM

---

The entries below come with measured IC50 values attached.
molecular target: human TRPV3 (Homo sapiens); assay: Calcium flux assay (FLIPR TETRA), recombinant HEK293 cells expressing TRPV3, 2-APB response; settings: 2-APB at its EC80

Take a look at these entries with their results.
Molecule	IC50
COc1ncnc(OC)c1C(=O)Nc1nc(C(F)(F)F)c(-c2ccnc(C(C)(C)C#N)c2)s1 [Example 33]	50 to 100 nM
COc1ncnc(O)c1C(=O)Nc1nc(-c2ccc(C(F)(F)F)cn2)c(C(=O)N(C)C)s1 [Example 79]	> 1000 nM
COc1ncnc(OC)c1C(=O)Nc1nc(/C=C/C(C)(C)C)cs1 [Example 104]	> 1000 nM
COc1ncnc(OC)c1C(=O)Nc1nc(C(F)(F)F)c(-c2cccnc2C#N)s1 [Example 42]	< 50 nM
COc1ncnc(OC)c1C(=O)Nc1nc(CCC2CC2)cs1 [Example 105]	50 to 100 nM
CCOC(=O)c1sc(NC(=O)c2c(OC)ncnc2OC)nc1-c1ccc(C(F)(F)F)cn1 [Example 75]	100 to 500 nM

Next up:
Test item COc1ncnc(OC)c1C(=O)Nc1nc(C(F)(F)F)c(C=O)s1 [Example 47] ; human TRPV3 (Homo sapiens); reported IC50 was > 1000 nM
